Target: hCB1 (Homo sapiens)
Sequence (P21554 whole entry): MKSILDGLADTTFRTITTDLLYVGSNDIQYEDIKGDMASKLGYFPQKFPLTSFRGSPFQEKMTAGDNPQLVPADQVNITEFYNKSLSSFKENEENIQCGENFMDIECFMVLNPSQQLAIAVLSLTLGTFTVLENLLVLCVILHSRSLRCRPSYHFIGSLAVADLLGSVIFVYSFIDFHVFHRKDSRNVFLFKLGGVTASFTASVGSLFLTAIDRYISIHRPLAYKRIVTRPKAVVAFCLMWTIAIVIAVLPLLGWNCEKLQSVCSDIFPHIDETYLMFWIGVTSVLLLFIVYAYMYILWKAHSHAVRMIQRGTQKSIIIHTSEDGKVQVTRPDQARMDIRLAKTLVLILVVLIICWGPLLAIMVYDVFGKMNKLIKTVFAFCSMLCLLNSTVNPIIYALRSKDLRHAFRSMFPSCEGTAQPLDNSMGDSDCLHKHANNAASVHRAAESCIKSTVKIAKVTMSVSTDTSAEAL
Experiment: cell-based
Parameters: host or cells: CHO-K1
Conditions: CB1, agonist mode; read-out: CB1 Agonist mode cAMP EC50
pEC50: −log10 of the molar value.
Below: a set of entries, each annotated with reported pEC50.

{"columns": ["molecule", "pEC50"],
 "data": [
  ["O=C(O)CCCCC(c1ccccc1)c1cn(-c2ccccc2)c2ccccc12 (stereo not shown)", 6.45],
  ["O=C(O)CCC(c1ccccc1)c1cn(-c2ccccn2)c2ccccc12 (stereo not shown)", 6.34],
  ["O=C(O)CCC(c1ccccc1)c1c[nH]c2ccccc12 (stereo not shown)", 5.01],
  ["O=C(O)CCCC(c1ccccc1)c1cn(-c2ccccc2)c2ccccc12 (stereo not shown)", 6.08],
  ["O=C(O)CCC(c1ccccc1)c1cn(C(=O)c2ccccc2)c2ccccc12 (stereo not shown)", 6.22],
  ["CC(CC(c1ccccc1)c1cn(-c2ccccc2)c2ccccc12)C(=O)O (racemic) [Compound 11]", 5.90],
  ["O=C(O)CCC(c1ccccc1)c1cn(-c2ccncc2)c2ccccc12 (stereo not shown)", 6.45],
  ["O=C(O)/C=C\\C(c1ccccc1)c1cn(-c2ccccc2)c2ccccc12 (stereo not shown)", 6.30],
  ["O=C(O)CCC(c1ccccc1)c1cn(Cc2ccccc2)c2ccccc12 (stereo not shown)", 5.98],
  ["Cc1ccc2c(C(CCC(=O)O)c3ccccc3)cn(-c3ccccc3)c2c1 (stereo not shown)", 5.90]
]}
